Answer each item with its documented inhibition at 13 µM.
- TARGET OF ASSAY: S. pneumoniae Topoisomerase IV ATPase (ParE) (Streptococcus pneumoniae serotype 4, UniProt Q59961)
- Sequence (Q59961 whole entry): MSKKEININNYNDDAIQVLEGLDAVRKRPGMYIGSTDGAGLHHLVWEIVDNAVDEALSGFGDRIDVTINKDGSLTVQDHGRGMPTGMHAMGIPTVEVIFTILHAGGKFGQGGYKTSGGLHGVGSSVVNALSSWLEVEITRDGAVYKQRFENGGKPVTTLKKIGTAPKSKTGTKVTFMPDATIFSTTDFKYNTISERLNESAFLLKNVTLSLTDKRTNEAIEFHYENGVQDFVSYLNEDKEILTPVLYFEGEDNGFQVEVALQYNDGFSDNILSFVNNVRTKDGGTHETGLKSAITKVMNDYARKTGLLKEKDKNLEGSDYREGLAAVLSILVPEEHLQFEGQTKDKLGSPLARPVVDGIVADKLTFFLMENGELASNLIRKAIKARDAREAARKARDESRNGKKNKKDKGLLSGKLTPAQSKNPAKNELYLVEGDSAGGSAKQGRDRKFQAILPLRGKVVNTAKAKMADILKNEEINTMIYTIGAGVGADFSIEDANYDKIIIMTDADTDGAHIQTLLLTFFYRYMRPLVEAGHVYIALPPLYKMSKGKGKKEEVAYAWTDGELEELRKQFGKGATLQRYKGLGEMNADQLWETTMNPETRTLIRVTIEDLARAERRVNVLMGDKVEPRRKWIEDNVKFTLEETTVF
- ASSAY TEXT: S. pneumoniae Topoisomerase IV ATPase inhibition
- Type: biochemical
- CONDITION SET: values marked * are an average of two or more data points, read-out: % Inh (13 μM) of S. pneumoniae Topoisomerase IV ATPase
Number first, unit second: that is the form wanted.

Quick one: inhibition at 13 µM for CONC(=O)c1cccc(-c2cnc(Nc3ccc(F)c(Cl)c3)nc2NCCCN(C)C)c1 [Example 360] ? 112%

Try this compound too: COc1cc(Nc2ncc(-c3cnc(-n4ccnc4)c(C(=O)O)c3)c(-n3ccc(C(F)(F)F)n3)n2)cc(OC)c1 [Example 590] 100%

What do you get for O=C(O)/C=C/c1cccc(-c2cnc(Nc3ccc(F)c(Cl)c3)nc2-n2cc(-c3ccccn3)cn2)c1 [Example 567] ? 100%

// next record CONC(=O)c1cncc(-c2cnc(Nc3ccc(F)c(Cl)c3)nc2-n2nc(C(F)F)cc2C(F)F)c1 [Example 547] 71%

---

- TARGET OF ASSAY: UniProt:Q59961
- ASSAY TEXT: S. pneumoniae Topoisomerase IV ATPase inhibition
- Type: biochemical
- CONDITION SET: values marked * are an average of two or more data points, read-out: % Inh (13 μM) of S. pneumoniae Topoisomerase IV ATPase
RECORDED ENDPOINT: inhibition at 13 µM
A complete answer gives the number and then names the unit.

For the compound CN1CCN(c2nc(Nc3ccc(F)c(Cl)c3)ncc2-c2cncc(C(=O)O)c2)CC1 [Example 285] , what inhibition at 13 µM is on record? 61.9%

Note, next up: CCOC(=O)c1cncc(-c2cnc(Nc3ccc(F)c(Cl)c3)nc2N2CCN(C)CC2)c1 [Example 151] 50.1%

What do you have for COCCn1cc(C(=O)O)c(=O)c2cc(-c3cnc(Nc4ccc(F)c(Cl)c4)nc3N3CCOCC3)ccc21 [Example 303] ? 82%

Same read-out for COCCCNc1nc(Nc2ccc(F)c(Cl)c2)ncc1-c1cncnc1 [Example 75] ? 97.6%

Now consider CN(C)CCCNc1nc(Nc2ccc(F)c(Cl)c2)ncc1-c1cc2ccccc2o1 [Example 9] and answer again. 60%

Item: CS(=O)(=O)c1cc(Nc2ncc(-c3cccc(/C=C/C(=O)O)c3)c(-n3ccc(C(F)(F)F)n3)n2)ccc1F [Example 1115] 93%

Try O=C(O)c1cc(-c2cnc(Nc3ccc(F)c(Cl)c3)nc2-n2ccc(C(F)(F)F)n2)cnc1OCC(F)(F)F [Example 1135] next. 100%

Same question, Cc1cnc(CNc2nc(Nc3ccc(F)c(Cl)c3)ncc2-c2cncc(C(=O)O)c2)cn1 [Example 242] this time 61.3%

---

- TARGET OF ASSAY: S. pneumoniae Topoisomerase IV ATPase (ParE) (Streptococcus pneumoniae serotype 4)
- ASSAY TEXT: S. pneumoniae Topoisomerase IV ATPase inhibition
- Type: biochemical
- CONDITION SET: values marked * are an average of two or more data points, read-out: % Inh (13 μM) of S. pneumoniae Topoisomerase IV ATPase
RECORDED ENDPOINT: inhibition at 13 µM (%)
The reply should contain only the number, in %.

Which inhibition at 13 µM is listed for "COc1cc(Nc2ncc(-c3cncc(C(=O)O)c3)c(-n3nc(C(F)(F)F)cc3C)n2)cc(C(F)(F)F)c1" ? 100

Would you kindly repeat that for "CC(=O)N1CCN(c2nc(Nc3ccc(F)c(Cl)c3)ncc2-c2ccc(C(=O)O)s2)CC1" ? 100

Similarly, "O=S1(=O)CCN(CCCNc2nc(Nc3ccc(F)c(Cl)c3)ncc2-c2cncnc2)CC1" ? 79.8

// next record "COCCn1cc(-c2cnc(Nc3cc(OC)cc(OC)c3)nc2-n2ccc(C(F)(F)F)n2)cc(C(=O)O)c1=O" 100

How about "CNC(=O)/C=C/c1cccc(-c2cnc(Nc3ccc(F)c(Cl)c3)nc2N2CCOCC2)c1" ? 75.9

Repeat with "COc1ncc(-c2cnc(Nc3ccc(F)c(Cl)c3)nc2-n2ccc(C(F)(F)F)n2)cc1CO" 94

Continue with CCC(C)Nc1nc(Nc2ccc(F)c(Cl)c2)ncc1-c1cc2ccccc2o1 (centres unmarked) 18

Then "Cn1cc(CNc2nc(Nc3ccc(F)c(Cl)c3)ncc2-c2cncc(C(=O)O)c2)cn1" ? 117

---

I'd appreciate it if you could supply inhibition at 13 µM values for the items below.
- TARGET OF ASSAY: S. pneumoniae Topoisomerase IV ATPase (ParE) (Streptococcus pneumoniae serotype 4, UniProt Q59961)
- ASSAY TEXT: S. pneumoniae Topoisomerase IV ATPase inhibition
- Format: biochemical
- CONDITION SET: values marked * are an average of two or more data points, read-out: % Inh (13 μM) of S. pneumoniae Topoisomerase IV ATPase
The reply should be a number in %, with the unit left off.

Suppose we examine the compound COCCNc1nc(Nc2ccc(F)c(Cl)c2)ncc1-c1cncnc1 [Example 50] ; what inhibition at 13 µM value has been reported? 77.8

Now consider O=C(O)c1cncc(-c2cnc(Nc3ccc(F)c(Cl)c3)nc2-n2nc(C(F)F)cc2C(F)F)c1 [Example 532] and answer again. 100

Also check CCOC(=O)c1cncc(-c2cnc(Nc3ccc(F)c(Cl)c3)nc2N2CCC(N3CCOCC3)CC2)c1 [Example 119] 32

// repeat for COc1cc(Nc2ncc(-c3cncc(C(=O)NCCO)c3)c(-n3ccc(C(F)(F)F)n3)n2)cc(OC)c1 [Example 682] and report 100

Another: CCOC(=O)c1cncc(-c2cnc(Nc3cc(OC)cc(-n4cnnn4)c3)nc2N2CCOCC2)c1 [Example 380] 37

What do we get for CNC(=O)c1cc(-c2cnc(Nc3ccc(F)c(Cl)c3)nc2-n2nc(C(F)(F)F)cc2C)cnc1OC [Example 1103] ? 76

Proceed to O=C(O)/C=C/c1cccc(-c2cnc(Nc3ccc(F)c(Cl)c3)nc2N2CCN(C(=O)C3CC3)CC2)c1 [Example 287] 97.2

// repeat for CC(C)OCCNc1nc(Nc2ccc(F)c(Cl)c2)ncc1-c1cncnc1 [Example 52] and report 69.5

Same for COc1cc(Nc2ncc(-c3cnc(OC)c(C(=O)NS(=O)(=O)c4sc(C)nc4C)c3)c(-n3nc(C(F)(F)F)cc3C)n2)cc(OC)c1 [Example 837] 94

Lookup O=C(O)[C@H]1CCCN1c1cccc(-c2cnc(Nc3ccc(F)c(Cl)c3)nc2-n2ccc(C(F)(F)F)n2)c1 [Example 600] 100

Query CS(=O)(=O)c1cccc(Nc2ncc(-c3cncc(C(=O)O)c3)c(-n3ccc(C(F)(F)F)n3)n2)c1 [Example 643] next 100

Subsequent entry: COC1CCN(c2nc(Nc3ccc(F)c(Cl)c3)ncc2-c2cncc(C(=O)O)c2)CC1 [Example 249] 70.8

// query: COCCNc1ncc(-c2cnc(Nc3ccc(F)c(Cl)c3)nc2-n2nc(C(F)(F)F)cc2C)cc1C(=O)O [Example 1080] 100

Also need COc1ncc(-c2cnc(Nc3cc(Cl)cc(C#N)c3)nc2-n2nc(C(F)(F)F)cc2C)cc1C(=O)O [Example 1122] , thanks. 100

Then COc1cc(Nc2ncc(-c3cnc(OC)c(C(=O)NS(C)(=O)=O)c3)c(-n3nc(C(F)(F)F)cc3C)n2)cc(C(F)(F)F)c1 [Example 902] ? 97

Now try O=C(O)c1cc(-c2cnc(Nc3ccc(F)c(Cl)c3)nc2-n2ccc(C(F)(F)F)n2)c[nH]c1=O [Example 1092] . 100

Now give it for CCOC(=O)/C=C/c1cccc(-c2cnc(Nc3cc(C)c(Cl)cc3OC)nc2NCCCN(C)C)c1 [Example 343] too. -22.3

What would you report for CN(C)CCCNc1nc(Nc2ccc(F)c(Cl)c2)ncc1-c1ccc(CCC(=O)O)cc1 [Example 27] ? 89.2

Consider next the compound COc1ncc(-c2cnc(Nc3cc(C)ccc3F)nc2-n2ccc(C(F)(F)F)n2)cc1C(=O)O [Example 756] in the same way. 56

Ok, now COCCCNc1nc(Nc2ccc(F)c(Cl)c2)ncc1-c1nc(-c2nccs2)cs1 [Example 502] 10

Another: O=C(O)c1cncc(-c2cnc(Nc3ccc4c(c3)OCO4)nc2-n2ccc(C(F)(F)F)n2)c1 [Example 670] 100

Now consider O=C(O)/C=C/c1cccc(-c2cnc(Nc3ccc(F)c(Cl)c3)nc2-n2cc(Cl)cn2)c1 [Example 313] and answer again. 80.3

Cool, now O=C(O)c1cncc(-c2cnc(Nc3ccc(F)c(Cl)c3)nc2NCC2CCCO2)c1 (stereo not drawn) [Example 235] 81.2

What about Fc1ccc(Nc2ncc(-c3cncnc3)c(-n3nnc4ccccc43)n2)cc1Cl [Example 89] ? 85.3

Could you do the same for COc1cc(Nc2ncc(-c3cnc(OC)c(C(=O)NS(=O)(=O)c4cn(C)cn4)c3)c(-n3nc(C(F)(F)F)cc3C)n2)cc(OC)c1 [Example 839] , please? 100

Another compound to check: CN(C)CCCNc1nc(Nc2ccc(F)c(Cl)c2)ncc1-c1cccc([N+](=O)[O-])c1 [Example 14] 100

Again, but for Cc1cc(C)cc(Nc2ncc(-c3cc(C(=O)O)c(=O)n(C)c3)c(-n3nc(C(F)(F)F)cc3C)n2)c1 [Example 1166] 100

What do you have for COCC(COC)Oc1ncc(-c2cnc(Nc3ccc(F)c(Cl)c3)nc2-n2nc(C(F)(F)F)cc2C)cc1C(=O)O [Example 870] ? 100

Then this compound: O=C(O)c1cncc(-c2cnc(Nc3ccc(F)c(Cl)c3)nc2-n2ccnn2)c1 [Example 329] 116

Likewise for Cc1cc(C(F)(F)F)nn1-c1nc(Nc2cccc(S(C)(=O)=O)c2)ncc1-c1cccc(/C=C/C(=O)O)c1 [Example 624] ? 89

All figures here come from patent US20100137313A1.
